Biological target: hNav1.7 (Homo sapiens (Human), UniProt Q15858)
Sequence (Q15858 other isoform, or with tags, fused parts or gaps): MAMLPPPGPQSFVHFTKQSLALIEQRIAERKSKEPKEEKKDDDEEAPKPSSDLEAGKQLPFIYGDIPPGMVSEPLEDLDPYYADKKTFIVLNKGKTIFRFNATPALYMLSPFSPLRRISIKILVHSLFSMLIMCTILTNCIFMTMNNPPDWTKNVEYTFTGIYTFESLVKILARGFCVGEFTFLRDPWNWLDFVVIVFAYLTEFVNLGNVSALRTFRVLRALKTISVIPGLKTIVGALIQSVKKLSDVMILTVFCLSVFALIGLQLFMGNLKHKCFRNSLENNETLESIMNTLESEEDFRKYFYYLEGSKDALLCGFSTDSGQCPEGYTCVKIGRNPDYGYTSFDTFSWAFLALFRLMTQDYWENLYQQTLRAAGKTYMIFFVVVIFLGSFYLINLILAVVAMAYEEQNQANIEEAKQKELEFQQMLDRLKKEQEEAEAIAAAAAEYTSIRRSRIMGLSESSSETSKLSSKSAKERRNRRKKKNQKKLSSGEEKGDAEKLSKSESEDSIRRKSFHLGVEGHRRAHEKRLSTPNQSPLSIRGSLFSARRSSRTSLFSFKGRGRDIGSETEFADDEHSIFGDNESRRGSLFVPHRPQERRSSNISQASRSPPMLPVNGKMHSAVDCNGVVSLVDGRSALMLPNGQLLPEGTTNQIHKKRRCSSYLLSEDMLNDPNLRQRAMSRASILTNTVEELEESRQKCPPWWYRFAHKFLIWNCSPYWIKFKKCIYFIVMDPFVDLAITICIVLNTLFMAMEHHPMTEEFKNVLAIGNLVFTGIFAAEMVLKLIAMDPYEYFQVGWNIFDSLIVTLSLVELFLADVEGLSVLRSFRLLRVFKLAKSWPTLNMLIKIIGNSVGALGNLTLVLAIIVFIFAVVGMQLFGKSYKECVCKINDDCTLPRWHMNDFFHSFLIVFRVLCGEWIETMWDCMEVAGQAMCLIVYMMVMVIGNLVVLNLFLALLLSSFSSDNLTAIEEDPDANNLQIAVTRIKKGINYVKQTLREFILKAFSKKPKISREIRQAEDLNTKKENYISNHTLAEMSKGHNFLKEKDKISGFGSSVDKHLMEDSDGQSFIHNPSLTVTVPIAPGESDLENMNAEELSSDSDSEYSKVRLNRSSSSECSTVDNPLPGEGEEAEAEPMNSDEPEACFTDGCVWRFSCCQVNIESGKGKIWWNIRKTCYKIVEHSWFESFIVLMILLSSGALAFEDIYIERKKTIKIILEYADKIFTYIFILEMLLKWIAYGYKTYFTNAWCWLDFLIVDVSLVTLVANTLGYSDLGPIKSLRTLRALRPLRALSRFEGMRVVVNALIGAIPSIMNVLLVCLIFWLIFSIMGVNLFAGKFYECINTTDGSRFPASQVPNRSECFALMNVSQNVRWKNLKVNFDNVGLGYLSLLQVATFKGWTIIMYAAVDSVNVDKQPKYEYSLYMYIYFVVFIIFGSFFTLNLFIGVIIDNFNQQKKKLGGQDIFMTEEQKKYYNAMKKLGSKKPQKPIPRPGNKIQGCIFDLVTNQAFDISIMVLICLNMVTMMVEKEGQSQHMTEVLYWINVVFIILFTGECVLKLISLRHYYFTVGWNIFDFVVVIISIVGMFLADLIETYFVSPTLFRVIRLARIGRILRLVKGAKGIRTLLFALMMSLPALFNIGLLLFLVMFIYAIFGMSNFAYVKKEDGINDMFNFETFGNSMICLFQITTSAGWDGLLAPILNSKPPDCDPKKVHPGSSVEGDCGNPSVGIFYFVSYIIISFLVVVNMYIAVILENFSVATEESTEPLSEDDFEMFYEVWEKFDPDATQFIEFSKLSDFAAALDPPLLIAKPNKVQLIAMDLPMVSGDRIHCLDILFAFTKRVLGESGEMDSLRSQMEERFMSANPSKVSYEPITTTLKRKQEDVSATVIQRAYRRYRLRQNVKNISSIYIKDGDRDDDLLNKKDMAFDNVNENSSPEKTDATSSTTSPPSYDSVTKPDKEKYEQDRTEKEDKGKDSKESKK
Sequence (Q07699 19-218 partner): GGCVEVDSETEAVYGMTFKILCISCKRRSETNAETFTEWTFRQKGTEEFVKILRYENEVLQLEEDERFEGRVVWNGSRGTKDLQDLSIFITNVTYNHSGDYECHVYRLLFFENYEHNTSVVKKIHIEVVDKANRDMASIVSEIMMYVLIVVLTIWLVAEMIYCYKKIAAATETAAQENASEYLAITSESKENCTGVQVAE
Test: Tritiated sulfonamide competitive binding to membranes from cells expressing hNav1.7 and the β1 subunit;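 also: Filter-bound radioactivity counted by liquid scintillation, nonspecific binding defined with excess unlabelled ligand, IC50 fitted to percent inhibition of specific binding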
Conditions: read-out: Ligand Binding Assay; 100 pM [3H]compound, membranes with hNav1.7 and β1 subunit, 18 h, room temperature
So I've got a bunch of compounds here, and I need their IC50 values.
Please give a number only; it is taken to be in nM.

Look up IC50 for this compound: CCS(=O)(=O)NC(=O)c1cc(C2CC2)c(OCC2CCN([C@@H](C)c3ccc(F)cc3Cl)CC2)cc1F (single isomer, unassigned) 7.9

Look up IC50 for this compound: "C[C@@H](c1ccc(F)cc1Cl)N1CCC[C@@H](Oc2cc(F)c(C(=O)NS(C)(=O)=O)cc2C2CC2)C1" 2.3

Look up IC50 for this compound: COCC(c1cc(Cl)cc(Cl)c1)N1CC(COc2cc(F)c(C(=O)NS(C)(=O)=O)cc2C2CC2)C1 (stereo not drawn) 14.7
